# testedOn: T1, EsCas13d, nuclease-dead (Eubacterium siraeum, UniProt B0MS50, R295A;H300A;R849A;H854A)
# T1 sequence: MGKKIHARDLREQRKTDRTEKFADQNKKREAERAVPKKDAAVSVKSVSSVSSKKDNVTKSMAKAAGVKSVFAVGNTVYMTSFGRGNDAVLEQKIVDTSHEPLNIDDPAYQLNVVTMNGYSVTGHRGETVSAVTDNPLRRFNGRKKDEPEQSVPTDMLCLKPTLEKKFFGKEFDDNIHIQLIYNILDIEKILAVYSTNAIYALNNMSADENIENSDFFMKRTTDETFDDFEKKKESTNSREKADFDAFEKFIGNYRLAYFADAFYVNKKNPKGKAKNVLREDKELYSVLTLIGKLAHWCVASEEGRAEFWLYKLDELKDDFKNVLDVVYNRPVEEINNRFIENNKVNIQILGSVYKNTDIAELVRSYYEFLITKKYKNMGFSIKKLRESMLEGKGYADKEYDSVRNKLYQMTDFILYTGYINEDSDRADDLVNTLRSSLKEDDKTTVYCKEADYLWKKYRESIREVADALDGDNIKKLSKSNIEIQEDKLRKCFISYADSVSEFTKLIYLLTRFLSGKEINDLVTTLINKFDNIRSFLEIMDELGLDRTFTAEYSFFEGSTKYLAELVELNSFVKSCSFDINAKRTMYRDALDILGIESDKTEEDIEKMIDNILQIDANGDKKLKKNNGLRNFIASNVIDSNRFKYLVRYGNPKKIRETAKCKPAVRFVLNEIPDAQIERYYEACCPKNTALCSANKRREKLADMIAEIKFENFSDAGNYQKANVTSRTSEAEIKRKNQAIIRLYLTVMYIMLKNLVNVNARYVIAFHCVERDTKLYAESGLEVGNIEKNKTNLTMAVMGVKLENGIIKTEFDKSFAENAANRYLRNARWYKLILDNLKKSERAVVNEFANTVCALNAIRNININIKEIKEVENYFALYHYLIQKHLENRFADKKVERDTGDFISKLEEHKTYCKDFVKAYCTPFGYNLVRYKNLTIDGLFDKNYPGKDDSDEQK
# testName: crRNA (strand 1, pre-loaded); Mg2+; 40 mM Tris-HCl pH 7.5, 150 mM NaCl, 6 mM MgCl2, 1 mM DTT, 0.1% Tween-20, 0.2 mg/ml BSA; 25 C; 10 min per concentration, then washed
# experimentalConditions: tags: His6-TwinStrep-SUMO cleaved; N-terminal SNAP kept (SNAP-Surface 488); label: 3' end held by stalled T7 RNA polymerase
quantityKind: pKd
To interpret pKd, take it as minus log10 of a concentration measured in moles per litre.

Solved cases (3 shown):
binder	quantityKind	endpointValue
target 1 MT 5'PFS UAG 3'PFS CUC (mixed) RNA 1: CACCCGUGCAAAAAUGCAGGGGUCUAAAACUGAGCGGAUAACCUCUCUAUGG RNA 2: GGGAAUGGAUCCACAUCUACGAAUUCUAGCCAUAGAGAGGUUAUCCGCUCACUCAGAUCGGAAGAGCACACGU	pKd	7.53
target 2 MT 5'PFS GAC 3'PFS AGC (mixed) RNA 1: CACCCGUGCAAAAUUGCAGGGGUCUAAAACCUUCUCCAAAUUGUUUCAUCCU RNA 2: GGGAAUGGAUCCACAUCUACGAAUUCGACAGGAUGAAACAAUUUGGAGAAGAGCAGAUCGGAAGAGCACACGU	pKd	8.03
target 1 insC 3' of 19,insU 3' of 7 (mixed) RNA 1: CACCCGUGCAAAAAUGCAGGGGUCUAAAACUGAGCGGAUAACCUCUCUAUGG RNA 2: GGGAAUGGAUCCACAUCUACGAAUUCGUACCAUCAGAGAGGUUAUCUCGCUCACCGAGAUCGGAAGAGCACACGU	pKd	7.21

Note to self: pKd recorded for target 1 insC 3' of 14,insU 3' of 14 (mixed) RNA 1: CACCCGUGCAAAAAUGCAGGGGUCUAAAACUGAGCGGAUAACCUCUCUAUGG RNA 2: GGGAAUGGAUCCACAUCUACGAAUUCGUACCAUAGAGACUGGUUAUCCGCUCACCGAGAUCGGAAGAGCACACGU was 7.30

Reported pKd for target 2 MT 5'PFS AUG 3'PFS ACG (mixed) RNA 1: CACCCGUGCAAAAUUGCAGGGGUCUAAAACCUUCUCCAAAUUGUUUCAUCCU RNA 2: GGGAAUGGAUCCACAUCUACGAAUUCAUGAGGAUGAAACAAUUUGGAGAAGACGAGAUCGGAAGAGCACACGU was 7.90

The recorded pKd for target 1 insC 3' of 13,insC 3' of 8 (mixed) RNA 1: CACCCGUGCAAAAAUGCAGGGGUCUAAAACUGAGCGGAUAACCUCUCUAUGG RNA 2: GGGAAUGGAUCCACAUCUACGAAUUCGUACCAUAGAGAGCGUUAUCCCGCUCACCGAGAUCGGAAGAGCACACGU is 7.88

binder target 3 insU 3' of 11,insG 3' of 6 (mixed) RNA 1: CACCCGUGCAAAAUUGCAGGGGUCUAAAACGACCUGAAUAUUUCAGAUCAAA RNA 2: GGGAAUGGAUCCACAUCUACGAAUUCGUUUUUGAUCUGAAAUUAUUCGAGGUCUGCAGAUCGGAAGAGCACACGU , pKd observed: 7.06

Kindly note the recorded pKd for target 1 insU 3' of 20,insU 3' of 7 (mixed) RNA 1: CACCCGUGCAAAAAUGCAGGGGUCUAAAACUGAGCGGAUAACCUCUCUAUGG RNA 2: GGGAAUGGAUCCACAUCUACGAAUUCGUACCAUUAGAGAGGUUAUCUCGCUCACCGAGAUCGGAAGAGCACACGU , which is 7.54
